- assay_summary: qHTS assay to identify small molecule antagonists of the estrogen receptor alpha (ER-alpha) signaling pathway using the BG1 cell line (AID 743080);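 also: BG1 cells stimulated with 17beta-estradiol alongside compound; nearly all actives have a fitted effect of over 25% in size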
- condition_summary: BG1Luc4E2 ERE-luciferase antagonist mode, luminescence; series mostly up to 70.3 µM
Results filed as inconclusive are left out. Active and inactive are the calls of the source. Calls follow the shape of the full dose curve.
Tick one outcome: active, inactive

## Task GET /call?item= `C#CCO` returns the recorded outcome of this test.
## Result inactive

## Task Now try `Oc1cccc(Cl)c1Cl` .
## Result inactive

## Task Then this molecule: `CCOC(=O)CCN(SN(C)C(=O)Oc1cccc2c1OC(C)(C)C2)C(C)C`
## Result inactive

## Task How about this molecule: CN1[C@@H]2CC[C@H]1CC(O)C2 (some centres not stated)
## Result inactive

## Task Try the molecule `N#CC(C#N)=NNc1cccc(Cl)c1`
## Result active

## Task Proceed to `ClC1=C(Cl)[C@]2(Cl)[C@@H]3[C@H]4C[C@H]([C@@H]5O[C@H]45)[C@@H]3[C@@]1(Cl)C2(Cl)Cl`
## Result inactive

## Task What do you get for `Nc1nc(N)c(N)c(N)n1` ?
## Result inactive

###

- assay_summary: qHTS assay to identify small molecule agonists of the estrogen receptor alpha (ER-alpha) signaling pathway in the presence of an antagonist - cell viability counter screen (AID 1259386);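 also: cells exposed to compounds for 22 h at 37 °C before the viability read; nearly all actives have a fitted effect of over 30% in size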
- condition_summary: VM7Luc4E2 viability, CellTiter-Fluor fluorescence, 22 h; series mostly up to 92.4 µM
Results filed as inconclusive are left out. Calls of active or inactive are those of the source. Calls come from the whole dose curve; as a rule, active = well fitted cell-killing curve with a large enough effect in the repeat runs; inconclusive = weak or mixed curves, or effect the other way; inactive = no such curve, though single readings can be large or run the other way.
Hi there, use one of these labels in your reply, thanks! yes for active, no for inactive

## Task Status in this test for `CCCN` ?
## Result no

## Task Now give it for `CCN(CC)CCN1C(=O)CN=C(c2ccccc2F)c2cc(Cl)ccc21` too.
## Result no

## Task How about `[F][Sn]([c]1ccccc1)([c]1ccccc1)[c]1ccccc1` ?
## Result yes

## Task Input CCCCC(CC)COC(=O)c1ccccc1C(=O)OCC(CC)CCCC (configuration not stated)
## Result no

## Task Param item: `Oc1ccc2[nH]cc(CCCCN3CC=C(c4ccccc4)CC3)c2c1`
## Result no

## Task What do you get for `CN/C(=N\[N+](=O)[O-])NCc1cnc(Cl)s1` ?
## Result no

## Task Query CN1C2CCC(C)(C)C1CC(OC(=O)C(O)(c1cccs1)c1cccs1)C2 (configuration not stated) next
## Result no

## Task Next up: `CCCCC/C=C\C/C=C\C/C=C\C/C=C\CCCC(=O)NCC(=O)O`
## Result no

## Task Also, `BrCCCBr` please.
## Result no

## Task One more molecule: CCO/N=C(\CC)C1=C(O)CC(c2c(C)cc(C)cc2C)CC1=O (configuration not stated)
## Result no

## Task Now consider CCC(C)Nc1c([N+](=O)[O-])cc(C(C)(C)C)cc1[N+](=O)[O-] (configuration not stated) and answer again.
## Result no

## Task // same read-out, input: `CCCCc1ccccc1`
## Result no

## Task Please answer likewise for `COc1ccc2c3c1O[C@H]1[C@H](O)CC[C@H]4[C@@H](C2)N(C)CC[C@@]341`
## Result no

## Task // query: `Cc1ccc(C)c2ccccc12`
## Result no

## Task What about CC(C)[C@@H](Nc1ccc(C(F)(F)F)cc1Cl)C(=O)OC(C#N)c1cccc(Oc2ccccc2)c1 (some centres not stated) ?
## Result no

## Task Follow-up entry: `C[C@@H]1CC2=CC(=O)CC[C@@H]2[C@H]2CC[C@@]3(C)[C@@H](CC[C@]3(C)O)[C@@H]21`
## Result no

## Task Try `C=CC(=O)[O][Sn]([CH2]CCC)([CH2]CCC)[CH2]CCC` next.
## Result yes

All figures here come from PubChem BioAssay (Tox21).
